measured on: GPR119 (UniProt Q8TDV5, S309L, species not given)
method description: GPR119 signaling, cyclic AMP (cAMP) HTRF assay
Type: cell-based, human (S309L variant) or murine
condition label: CHO cells with Gα15 and murine GPR119 or HEK293 Flp-In cells with human GPR119 S309L, read-out: EC50 (agonist activation of GPR119, cAMP)
value type: EC50

// known answers, use as guide
>>> value("CC1(C(=O)Nc2ccc(NCC[C@@H]3C[C@@H]3C3CCN(c4ncc(Cl)cn4)CC3)cn2)CC1")
"< 10 nM"
>>> value("Clc1cnc(N2CCC([C@H]3C[C@H]3CCNc3ccc(-n4cnnn4)nc3)CC2)nc1")
"< 10 nM"
>>> value("Clc1cnc(N2CCC([C@H]3C[C@H]3CCNc3ccc(-n4cncn4)cc3)CC2)nc1")
"< 10 nM"
>>> value("Clc1cnc(N2CCC([C@H]3C[C@H]3CCNc3cnc(-n4cncn4)cn3)CC2)nc1")
"< 10 nM"
>>> value("Clc1cnc(N2CCC([C@H]3C[C@H]3CCNc3ccc(-n4cncn4)nc3)CC2)nc1")
"< 10 nM"

Given the compound O=C1Cc2cc(NCC[C@@H]3C[C@@H]3C3CCN(c4ncc(Cl)cn4)CC3)cc(Cl)c2N1 and test system GPR119 (UniProt Q8TDV5, S309L, species not given), the measured EC50 is < 10 nM

Log: GPR119 (UniProt Q8TDV5, S309L, species not given), compound Cn1cc2cc(NCC[C@@H]3C[C@@H]3C3CCN(c4ncc(Cl)cn4)CC3)ccc2n1 , EC50 = 10 to 50 nM

Bench note, GPR119 (UniProt Q8TDV5, S309L, species not given): O=C1Cc2cc(NCC[C@@H]3C[C@@H]3C3CCN(c4ncc(Cl)cn4)CC3)ccc2N1 , EC50 reads 10 to 50 nM

----------
measured on: GPR119 (UniProt Q8TDV5, S309L, species not given)
Sequence (Q8TDV5 1-335 S309L): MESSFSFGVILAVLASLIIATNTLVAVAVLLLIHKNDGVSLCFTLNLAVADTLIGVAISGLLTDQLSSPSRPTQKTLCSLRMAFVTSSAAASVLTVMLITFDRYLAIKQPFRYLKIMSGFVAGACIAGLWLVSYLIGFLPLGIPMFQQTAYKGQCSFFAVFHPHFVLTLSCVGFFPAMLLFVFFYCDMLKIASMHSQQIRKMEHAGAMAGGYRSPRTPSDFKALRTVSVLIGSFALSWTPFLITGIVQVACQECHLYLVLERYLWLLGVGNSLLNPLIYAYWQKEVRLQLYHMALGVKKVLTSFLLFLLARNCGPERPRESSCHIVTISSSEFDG
method description: GPR119 signaling, cyclic AMP (cAMP) HTRF assay
condition label: CHO cells with Gα15 and murine GPR119 or HEK293 Flp-In cells with human GPR119 S309L, read-out: EC50 (agonist activation of GPR119, cAMP)
value type: EC50

These recorded examples may help you get a feel for the data.
>>> value("Clc1cnc(N2CCC([C@@H]3C[C@H]3CCNc3ccc(-n4cncn4)nc3)CC2)nc1 (single isomer, unassigned)")
"0.01 to 0.05 µM"
>>> value("Cc1cc(-n2cnnn2)cnc1NCC[C@@H]1C[C@@H]1C1CCN(c2ncc(Cl)cn2)CC1")
"< 0.01 µM"

For Cc1nnn(-c2ccc(NCC[C@@H]3C[C@@H]3C3CCN(c4ncc(Cl)cn4)CC3)cn2)n1 the compound record lists EC50 as < 0.01 µM

Lab note: measured EC50 of Cc1nnnn1-c1ccc(NCC[C@@H]2C[C@@H]2C2CCN(c3ncc(Cl)cn3)CC2)cn1 was 0.01 to 0.05 µM

Query CS(=O)(=O)c1ccc(NCC[C@@H]2C[C@H]2C2CCN(c3ncc(Cl)cn3)CC2)cc1 (single isomer, unassigned) [Ex 60] yields EC50 of 0.05 to 0.2 µM

Entry under test: Clc1cnc(N2CCC([C@H]3C[C@H]3CCNc3ccc(-n4ccnn4)cn3)CC2)nc1 . Its EC50 was < 0.01 µM

Reported EC50 ( CS(=O)(=O)c1ccc(NCC[C@@H]2C[C@H]2C2CCN(c3ncc(Cl)cn3)CC2)cc1 (single isomer, unassigned) [Ex 58] ) = 0.05 to 0.2 µM

Short answer for Clc1cnc(N2CCC([C@H]3C[C@H]3CCNc3ccc(-n4nccn4)nc3)CC2)nc1 : EC50 was 0.01 to 0.05 µM

----------
measured on: GPR119 (UniProt Q8TDV5, S309L, species not given)
method description: GPR119 signaling, cyclic AMP (cAMP) HTRF assay
condition label: CHO cells with Gα15 and murine GPR119 or HEK293 Flp-In cells with human GPR119 S309L, read-out: EC50 (agonist activation of GPR119, cAMP)
From the text: The title compound was synthesized using 2-{2-[1-(5-chloropyrimidin-2-yl)piperidin-4-yl]cyclopropyl}ethyl 4-methylbenzenesulfonate from step 1 of this example by a general procedure analogous that described in Example 59. LRMS calc: 424.9; obs: 425.01 (M+1). Measurement of GPR119Signaling Using a Cyclic AMP (cAMP) Homogenous Time Resolved Fluorescence (HTRF) Assay […]
pEC50: −log10 of the molar value.
Entries annotated with measured pEC50

Example entries begin here.
>>> value("CS(=O)(=O)c1ccc(NCC[C@@H]2C[C@@H]2C2CCN(c3ncc(Cl)cn3)CC2)cc1")
"> 8.00"
>>> value("CC(C)(C)C(=O)Nc1ccc(NCC[C@@H]2C[C@@H]2C2CCN(c3ncc(Cl)cn3)CC2)cn1")
"> 8.00"
>>> value("Cc1nc(C#N)cc(NCC[C@@H]2C[C@@H]2C2CCN(c3ncc(Cl)cn3)CC2)n1")
"7.30 to 8.00"

Alright, here's another compound for you.
Quick note, pEC50 for Cc1cc(NCC[C@@H]2C[C@@H]2C2CCN(c3ncc(Cl)cn3)CC2)cnc1NC(=O)C(C)(C)C landed at > 8.00

----------
measured on: GPR119 (UniProt Q8TDV5, S309L, species not given)
method description: GPR119 signaling, cyclic AMP (cAMP) HTRF assay
condition label: CHO cells with Gα15 and murine GPR119 or HEK293 Flp-In cells with human GPR119 S309L, read-out: EC50 (agonist activation of GPR119, cAMP)
pEC50: −log10 of the molar value.
Form field: pEC50 (one value per entry).

These solved cases illustrate the format of a correct answer.
>>> value("Clc1cnc(N2CCC([C@H]3C[C@H]3CCNc3ccc4cn[nH]c4c3)CC2)nc1 [Ex 57]")
"> 8.00"
>>> value("Cc1cc(C#N)cc(NCC[C@@H]2C[C@@H]2C2CCN(c3ncc(Cl)cn3)CC2)n1 [Ex 40]")
"7.30 to 8.00"
>>> value("CC(=O)Nc1ccc(NCC[C@@H]2C[C@@H]2C2CCN(c3ncc(Cl)cn3)CC2)cc1 [Ex 52]")
"7.30 to 8.00"

// below: pEC50 requested for another molecule
// Clc1cnc(N2CCC([C@H]3C[C@H]3CCNc3ccc4[nH]ncc4c3)CC2)nc1 [Ex 42] : pEC50 value = > 8.00

----------
measured on: GPR119 (UniProt Q8TDV5, S309L, species not given)
method description: GPR119 signaling, cyclic AMP (cAMP) HTRF assay
condition label: CHO cells with Gα15 and murine GPR119 or HEK293 Flp-In cells with human GPR119 S309L, read-out: EC50 (agonist activation of GPR119, cAMP)
pEC50: −log10 of the molar value.
value type: pEC50

Field: example entries. Status: answers known.
>>> value("CC(=O)Nc1cnc(NCC[C@@H]2C[C@@H]2C2CCN(c3ncc(Cl)cn3)CC2)c(C)c1")
"7.30 to 8.00"
>>> value("Cc1cc(NCC[C@@H]2C[C@@H]2C2CCN(c3ncc(Cl)cn3)CC2)ncc1NC(=O)C(C)(C)C")
"> 8.00"
>>> value("Clc1cnc(N2CCC([C@H]3C[C@H]3CCNc3ccc(-n4cnnn4)cc3)CC2)nc1")
"> 8.00"

Consider the record given below.
Bench note, GPR119 (UniProt Q8TDV5, S309L, species not given): Clc1cnc(N2CCC([C@H]3C[C@H]3CCNc3cnc(-n4cnnn4)nc3)CC2)nc1 , pEC50 reads 7.30 to 8.00

----------
measured on: GPR119 (UniProt Q8TDV5, S309L, species not given)
Sequence (Q8TDV5 1-335 S309L): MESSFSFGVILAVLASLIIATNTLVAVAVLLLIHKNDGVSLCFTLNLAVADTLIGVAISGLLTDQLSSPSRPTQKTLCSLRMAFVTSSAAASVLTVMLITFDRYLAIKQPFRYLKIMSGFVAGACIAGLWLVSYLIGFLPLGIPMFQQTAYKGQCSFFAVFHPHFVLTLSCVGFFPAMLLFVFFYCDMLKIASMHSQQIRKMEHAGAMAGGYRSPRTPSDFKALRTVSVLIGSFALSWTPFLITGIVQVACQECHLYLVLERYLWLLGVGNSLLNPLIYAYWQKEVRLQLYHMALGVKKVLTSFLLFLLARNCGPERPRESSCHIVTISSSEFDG
method description: GPR119 signaling, cyclic AMP (cAMP) HTRF assay
condition label: CHO cells with Gα15 and murine GPR119 or HEK293 Flp-In cells with human GPR119 S309L, read-out: EC50 (agonist activation of GPR119, cAMP)
pEC50: −log10 of the molar value.
Quick reference: pEC50 of the listed items.

>>> value("O=C1NCc2cc(NCC[C@@H]3C[C@@H]3C3CCN(c4ncc(Cl)cn4)CC3)ccc21")
"> 8.00"
>>> value("O=C1CCCN1c1ccc(NCC[C@@H]2C[C@@H]2C2CCN(c3ncc(Cl)cn3)CC2)cn1")
"7.30 to 8.00"
>>> value("Clc1cnc(N2CCC([C@H]3C[C@H]3CCNc3ccc(-n4cnnc4)cc3)CC2)nc1")
"> 8.00"
>>> value("Cc1cc(NCC[C@@H]2C[C@@H]2C2CCN(c3ncc(Cl)cn3)CC2)cc(C#N)n1")
"> 8.00"
>>> value("Clc1cnc(N2CCC([C@H]3C[C@H]3CCNc3ccc(-c4ccn[nH]4)cc3)CC2)nc1")
"> 8.00"

Data point: Cn1cnnc1-c1ccc(NCC[C@@H]2C[C@@H]2C2CCN(c3ncc(Cl)cn3)CC2)cc1 ; pEC50 = 7.30 to 8.00

The value of pEC50 measured for the compound Cc1cc(C#N)nc(NCC[C@@H]2C[C@@H]2C2CCN(c3ncc(Cl)cn3)CC2)c1 turned out to be 7.30 to 8.00

Lab note: O=C1Cc2cc(NCC[C@@H]3C[C@@H]3C3CCN(c4ncc(Cl)cn4)CC3)cc(F)c2N1 gave pEC50 of > 8.00
